assay: qHTS Assay for Lipid Storage Modulators (AID 1519); conditions: Drosophila S3 cells, BODIPY lipid droplet/cell ratio, laser cytometry; measured here: cell count channel max response; cells loaded with oleic acid
Inconclusive results are not listed. Bridge positions count the residues as written; N and C are the ends. Square brackets hold non-standard residues; d marks the D form. Peptide text beside a SMILES is read from it. * marks the point of attachment. Ileψ(thiazoline)Cys = CC[C@H](C)[C@H](N)C1=N[C@H](C(=O)*)CS1; d(aIle) = CC[C@H](C)[C@@H](N)C(=O)O; dOrn = NCCC[C@@H](N)C(=O)O
measured-attribute: max response (%)
Your answer should be a plain number; it is taken to be in %.

compound: CC1CCC2(OC1)OC1CC3C4CC[C@@H]5CC(O)CC[C@@]5(C)C4CC(=O)[C@]3(C)C1C2C (stereo partly drawn)
unit: %
max response: 0.354
//
compound: CS(=O)(=O)c1ccc([C@H](O)[C@H](CF)NC(=O)C(Cl)Cl)cc1
unit: %
max response: 1.07
//
compound: Nc1ncnc2[nH]c(=O)[nH]c12
unit: %
max response: 1.75

Entry under review: "NC(=O)c1cc[n+](CC2=C(C(=O)[O-])N3C(=O)[C@@H](NC(=O)Cc4cccs4)[C@@H]3SC2)cc1" . Reported max response? -15

Value lookup for max response; key = NC(Cn1ccc(=O)c(O)c1)C(=O)O (stereo not drawn) 3.01

Fill blank: measured max response of the compound "COc1cccc(O)c1O" is ____. 9.09

Fill in the blank: the reported max response of CO[C@]12C(COC(N)=O)C3=C(C(=O)C(C)=C(N)C3=O)N1CC1NC12 (stereo partly drawn) is ____. 5.7

For CC(=O)O[C@](C)(CCC=C(C)C)C1CC=C(C)CC1 (stereo partly drawn) , what is its reported max response? 17.9

So what's the measured max response for this one? O=C(O)C1(O)CC(O)C(O)C(O)C1 (stereo not drawn) 9.62

So what's the measured max response for this one? "CCN[C@@H]1C[C@H](N)[C@H](O[C@H]2OC(CN)=CC[C@H]2N)[C@@H](O)[C@H]1O[C@H]1OC[C@@](C)(O)[C@@H](NC)[C@@H]1O" -6.32

Request the reported max response associated with CC[C@H](C)[C@H](N)C1=N[C@H](C(=O)N[C@@H](CC(C)C)C(=O)N[C@@H](CCC(=O)O)C(=O)N[C@@H](C(=O)N[C@H]2CCCCNC(=O)[C@@H](CC(N)=O)NC(=O)[C@@H](CC(=O)O)NC(=O)[C@@H](Cc3cnc[nH]3)NC(=O)[C@@H](Cc3ccccc3)NC(=O)[C@@H]([C@@H](C)CC)NC(=O)[C@@H](CCCN)NC2=O)[C@@H](C)CC)CS1 ({Ileψ(thiazoline)Cys}-LE[d(aIle)]K[dOrn][d(aIle)][dF][dH][dD][dN]; lactam 4-C) -6.25

What value of max response has been reported for the following compound? C=C1C(C2(C)C=CC(=O)C(C)(C)C2CC(=O)OC)CC[C@@]2(C)C(c3ccoc3)OC(=O)C3OC132 (stereo partly drawn) 5.07

Using the record for "COc1ccccc1/C=C\C(=O)O" , report its max response. 4.2

Numbers sourced from PubChem BioAssay (NCATS).
